B1: Formin-binding protein 4, residues 200 to 261; numbered along this chain, Q8N3X1 (parent)
chain: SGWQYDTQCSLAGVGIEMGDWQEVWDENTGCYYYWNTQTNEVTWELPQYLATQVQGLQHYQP

Variants of: B1
Assay: abundance fitness (aPCA) (normalised: wild type 0, dead -1); higher = more abundant; growth selection in yeast, the domain comes from the species named
Details: Homo sapiens
Assign abundance fitness to each entry below.
One number for each entry.

Reference set, count: 5
SGWQYDTQCSKAGVGIEMGDWQEVWDENTGCYYYWNTQTNEVTWELPQYLATQVQGLQHYQP
-0.469
SGWLYDTQCSLAGVGIEMGDWQEVWDENTGCYYYWNTQTNEVTWELPQYLATQVQGLQHYQP
-0.385
SGWQYDTQCSLAGVGIEMGDWQEVWDENTGCYYYWNTQTNEKTWELPQYLATQVQGLQHYQP
0.084
SGWQYDTQCSLAGVGIEMGDWQEVWDENTGCYYYWNTQTNEVTWELPQYLATQVQGLRHYQP
-0.242
SGWWYDTQCSLAGVGIEMGDWQEVWDENTGCYYYWNTQTNEVTWELPQYLATQVQGLQHYQP
-0.241

Hi, could you look up abundance fitness for each item in my list?
1. SGWQYDTQCSLAGVGIEMGDWQEVWDENTGCYYYWNTQTNEVTWELPQYLATQEQGLQHYQP
2. SGWQYDTQCSLAGVGIEMGDWQEVWDENTGAYYYWNTQTNEVTWELPQYLATQVQGLQHYQP
3. SGWQYDTQCSLAGVGIEMGDWQEVWDENTGCYYYWNTQTNEVTWILPQYLATQVQGLQHYQP
4. SGWQYDTQCSLAGVGIEMGDWQEVWDGNTGCYYYWNTQTNEVTWELPQYLATQVQGLQHYQP
5. SGWQYDTQCSLAGVGIEMGDWQEVWDENTGCYYYWNTQTNEVTWELPQYLATQVQNLQHYQP
6. SGWQYDTQCSLAGVGIEMGDWQEVWDENTGCYYYWNTQTNAVTWELPQYLATQVQGLQHYQP
7. SGWQYDTQCSLAGVGIEMGDWQEVWDENTGCYYYWNTQTNEVTWELPQCLATQVQGLQHYQP
8. SGWQYDTQCSLAGVGIEMGDWQEVWDENTGCYYYWNTQTNEVTWELPQYLASQVQGLQHYQP

Reply:
-0.741
0.01
-0.089
-0.066
0.051
-0.109
-0.069
0.008
